experimental.protocol: Solubility in alpha MEM
Type: physicochemical
quantity: solubility (µM)
Number only, in µM; omit the unit.

Please review the entries below; each comes with its answer.
{"columns": ["compound", "value.reported"],
 "data": [
  ["O=C(NCCn1ccnc1)c1cc(N(CCCl)CCCl)c([N+](=O)[O-])cc1[N+](=O)[O-]", 500],
  ["NC(=O)c1cc(N(CCCl)CCCl)c([N+](=O)[O-])cc1[N+](=O)[O-]", 750],
  ["CS(=O)(=O)OCCN(CCCl)c1cc(C(=O)NCC(O)CO)c([N+](=O)[O-])cc1[N+](=O)[O-] (centres undefined)", 2100],
  ["O=C(NC(CO)(CO)CO)c1cc(N(CCCl)CCCl)c([N+](=O)[O-])cc1[N+](=O)[O-]", 1800],
  ["CC(O)CNC(=O)c1cc(N(CCCl)CCCl)c([N+](=O)[O-])cc1[N+](=O)[O-] (centres undefined)", 1200]
]}

Look up and report measured solubility for this entry: O=C(NCCO)c1cc(N(CCI)CCI)c([N+](=O)[O-])cc1[N+](=O)[O-]
400

Look up and report measured solubility for this entry: COC(=O)CCNC(=O)c1cc(N(CCBr)CCBr)c([N+](=O)[O-])cc1[N+](=O)[O-]
280

Look up and report measured solubility for this entry: O=C(NCC(O)CO)c1cc(N(CCBr)CCBr)c([N+](=O)[O-])cc1[N+](=O)[O-] (centres undefined)
1700

Look up and report measured solubility for this entry: CS(=O)(=O)OCCN(CCBr)c1cc(C(N)=O)c([N+](=O)[O-])cc1[N+](=O)[O-]
230

* * *

# remaining at 24 h values compiled below
experimental.protocol: Stability in alpha MEM at 37 degC after 24 hrs
Type: physicochemical
recorded.conditions: read-out: Stability
Number only, in %; omit the unit.

Please review the entries below; each comes with its answer.
{"columns": ["compound", "value.reported"],
 "data": [
  ["O=C(NC(CO)(CO)CO)c1cc(N(CCCl)CCCl)c([N+](=O)[O-])cc1[N+](=O)[O-]", 97],
  ["NC(=O)c1cc(N(CCBr)CCBr)c([N+](=O)[O-])cc1[N+](=O)[O-]", 98]
]}

Look up and report measured remaining at 24 h for this entry: O=C(NCC(O)CO)c1cc(N(CCI)CCI)c([N+](=O)[O-])cc1[N+](=O)[O-] (centres undefined)
90

Look up and report measured remaining at 24 h for this entry: CS(=O)(=O)c1cc([N+](=O)[O-])c(C(N)=O)cc1N(CCBr)CCBr
63

Look up and report measured remaining at 24 h for this entry: CS(=O)(=O)OCCN(CCBr)c1cc(C(N)=O)c([N+](=O)[O-])cc1[N+](=O)[O-]
71

Look up and report measured remaining at 24 h for this entry: CS(=O)(=O)c1cc([N+](=O)[O-])c(N(CCCl)CCCl)cc1C(=O)NCC(O)CO (centres undefined)
106

Look up and report measured remaining at 24 h for this entry: NC(=O)c1cc(N(CCOS(N)(=O)=O)CCOS(N)(=O)=O)c([N+](=O)[O-])cc1[N+](=O)[O-]
95

Look up and report measured remaining at 24 h for this entry: O=C(NCCCN1CCOCC1)c1cc(N(CCBr)CCBr)c([N+](=O)[O-])cc1[N+](=O)[O-]
74

Look up and report measured remaining at 24 h for this entry: O=C(NOCCO)c1cc(N(CCCl)CCCl)c([N+](=O)[O-])cc1[N+](=O)[O-]
100

* * *

Test system: WiDr
experimental.protocol: Antiproliferative activity against human wild type WiDr NTR-ve cells after 18 hrs
Format: functional, cell-based
pIC50: −log10 of the molar value.
Response key: true means pIC50 >= 4; false means pIC50 < 4.

These solved cases illustrate the format of a correct answer.
{"columns": ["compound", "label.class"],
 "data": [
  ["CS(=O)(=O)OCCN(CCI)c1cc(C(N)=O)c([N+](=O)[O-])cc1[N+](=O)[O-]", "true"],
  ["CS(=O)(=O)OCCN(CCOS(C)(=O)=O)c1cc(C(=O)NCC(O)CO)c([N+](=O)[O-])cc1[N+](=O)[O-] (configuration not stated)", "false"],
  ["O=C(NCCN1CCOCC1)c1cc(N(CCCl)CCCl)c([N+](=O)[O-])cc1[N+](=O)[O-]", "false"],
  ["CC(O)CNC(=O)c1cc(N(CCCl)CCCl)c([N+](=O)[O-])cc1[N+](=O)[O-] (configuration not stated)", "false"],
  ["O=C(NCCCN1CCOCC1)c1cc(N(CCBr)CCBr)c([N+](=O)[O-])cc1[N+](=O)[O-]", "false"],
  ["O=C(NCCn1ccnc1)c1cc(N(CCCl)CCCl)c([N+](=O)[O-])cc1[N+](=O)[O-]", "false"],
  ["O=C(NCCO)c1cc(N(CCBr)CCBr)c([N+](=O)[O-])cc1[N+](=O)[O-]", "true"],
  ["O=C(NCCCN1CCOCC1)c1cc(N(CCCl)CCCl)c([N+](=O)[O-])cc1[N+](=O)[O-]", "false"],
  ["CN(C)CCNC(=O)c1cc(N(CCCl)CCCl)c([N+](=O)[O-])cc1[N+](=O)[O-]", "true"],
  ["O=C(NCC(O)CO)c1cc(N(CCCl)CCCl)c([N+](=O)[O-])cc1[N+](=O)[O-] (configuration not stated)", "false"]
]}

# evaluate next
Check the entry NC(=O)c1cc(N2CC2)c([N+](=O)[O-])cc1[N+](=O)[O-] [TRETAZICAR] : does pIC50 equal or exceed 4?
true

* * *

System: V79
experimental.protocol: Clonogenic survival of 3% V79 NTRpuro cells in co-cultures with 97% V79 NTRoua after 5 hrs by MCL assay
Assay type: functional, Cricetulus griseus
quantity: Activity (µM)
Number only, in µM; omit the unit.

Look up and report measured Activity for this entry: NC(=O)c1cc(N(CCCl)CCBr)c([N+](=O)[O-])cc1[N+](=O)[O-]
3.4

Look up and report measured Activity for this entry: CS(=O)(=O)OCCN(CCOS(C)(=O)=O)c1cc(C(N)=O)c([N+](=O)[O-])cc1[N+](=O)[O-]
13

Look up and report measured Activity for this entry: O=C(NCCO)c1cc(N(CCBr)CCBr)c([N+](=O)[O-])cc1[N+](=O)[O-]
5.2

Look up and report measured Activity for this entry: O=C(NO)c1cc(N(CCCl)CCCl)c([N+](=O)[O-])cc1[N+](=O)[O-]
43

Look up and report measured Activity for this entry: NC(=O)c1cc(N2CC2)c([N+](=O)[O-])cc1[N+](=O)[O-] [TRETAZICAR]
23

* * *

System: WiDr
experimental.protocol: Antiproliferative activity against human WiDr NTRneo cells after 18 hrs
Format: functional, cell-based
quantity: log10(IC50) (log10 of the value in µM)
A difference of one corresponds to tenfold IC50; all values are log10 with IC50 in µM.

{"columns": ["compound", "log10(IC50)"],
 "data": [
  ["O=C(NCCCN1CCOCC1)c1cc(N(CCBr)CCBr)c([N+](=O)[O-])cc1[N+](=O)[O-]", 1.76]
]}

Look up and report measured log10(IC50) for this entry: O=C(NOCCO)c1cc(N(CCCl)CCCl)c([N+](=O)[O-])cc1[N+](=O)[O-]
1.40

Look up and report measured log10(IC50) for this entry: CS(=O)(=O)OCCN(CCBr)c1cc(C(=O)NCC(O)CO)c([N+](=O)[O-])cc1[N+](=O)[O-] (stereo unspecified)
0.48

* * *

# pIC50 values compiled below
Test system: WiDr
experimental.protocol: Antiproliferative activity against human wild type WiDr NTR-ve cells after 18 hrs
Format: functional, cell-based
The read-out pIC50 is expressed as -log10 of concentration in moles per litre.

Please review the entries below; each comes with its answer.
{"columns": ["compound", "value.reported"],
 "data": [
  ["NC(=O)c1cc(N(CCOS(N)(=O)=O)CCOS(N)(=O)=O)c([N+](=O)[O-])cc1[N+](=O)[O-]", 3.36],
  ["CS(=O)(=O)OCCN(CCCl)c1cc(C(=O)NCC(O)CO)c([N+](=O)[O-])cc1[N+](=O)[O-] (stereo not drawn)", 2.91],
  ["CS(=O)(=O)OCCN(CCCl)c1cc(C(N)=O)c([N+](=O)[O-])cc1[N+](=O)[O-]", 3.61],
  ["CS(=O)(=O)c1cc([N+](=O)[O-])c(C(N)=O)cc1N(CCCl)CCCl", 3.46],
  ["O=C(NCCCCN1CCOCC1)c1cc(N(CCCl)CCCl)c([N+](=O)[O-])cc1[N+](=O)[O-]", 4.17]
]}

Look up and report measured pIC50 for this entry: CS(=O)(=O)OCCN(CCOS(C)(=O)=O)c1cc(C(N)=O)c([N+](=O)[O-])cc1[N+](=O)[O-]
4.62

Look up and report measured pIC50 for this entry: O=C(NCCO)c1cc(N(CCCl)CCCl)c([N+](=O)[O-])cc1[N+](=O)[O-]
3.18

Look up and report measured pIC50 for this entry: CS(=O)(=O)OCCN(CCBr)c1cc(C(=O)NCCO)c([N+](=O)[O-])cc1[N+](=O)[O-]
3.71
